systemUnderTest: DNA gyrase subunit A (Mycobacterium tuberculosis (strain ATCC 25618 / H37Rv))
Sequence (P9WG47 whole entry): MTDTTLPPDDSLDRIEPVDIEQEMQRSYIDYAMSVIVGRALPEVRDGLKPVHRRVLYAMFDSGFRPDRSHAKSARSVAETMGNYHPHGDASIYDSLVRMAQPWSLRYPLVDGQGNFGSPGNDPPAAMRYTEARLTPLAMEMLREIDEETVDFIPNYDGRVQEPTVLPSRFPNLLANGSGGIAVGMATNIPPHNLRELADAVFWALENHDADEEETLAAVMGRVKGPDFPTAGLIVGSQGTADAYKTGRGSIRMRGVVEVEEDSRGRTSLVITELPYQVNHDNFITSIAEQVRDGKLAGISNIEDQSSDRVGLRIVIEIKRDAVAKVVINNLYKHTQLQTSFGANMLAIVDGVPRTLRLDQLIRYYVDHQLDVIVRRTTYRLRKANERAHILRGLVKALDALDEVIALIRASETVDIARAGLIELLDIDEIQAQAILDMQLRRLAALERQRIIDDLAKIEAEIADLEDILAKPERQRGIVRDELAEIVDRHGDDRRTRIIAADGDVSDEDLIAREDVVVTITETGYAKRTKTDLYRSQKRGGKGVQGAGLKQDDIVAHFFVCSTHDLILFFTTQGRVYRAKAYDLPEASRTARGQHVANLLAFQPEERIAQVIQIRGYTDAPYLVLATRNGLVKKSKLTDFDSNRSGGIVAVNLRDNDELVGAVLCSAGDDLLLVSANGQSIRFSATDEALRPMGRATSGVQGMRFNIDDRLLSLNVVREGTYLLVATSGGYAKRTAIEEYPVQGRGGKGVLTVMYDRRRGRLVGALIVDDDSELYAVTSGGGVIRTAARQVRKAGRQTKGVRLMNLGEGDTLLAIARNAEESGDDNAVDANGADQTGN
testSummary: Enzyme Assay
measurementLabel: IC50

[ask] Recorded IC50 for "CC1=CC(=O)c2ccccc2C1=O" , please?
[reply] > 200 µM

[ask] Proceed to "Cc1cc(O)c2c(c1)C(=O)C(c1c(C)cc3c(c1O)C(=O)C=CC3=O)=CC2=O"
[reply] 15 µM

[ask] Proceed to "Cc1cc(O)c2c(c1)C(=O)C=C(c1c(C)cc(O)c3c1C(=O)C=CC3=O)C2=O"
[reply] 50 µM

[ask] Proceed to Cc1cc(O)c2c(c1)C(=O)C=CC2=O [5-Hydroxy-7-methyl-[1,4]naphthoquinone]
[reply] 30 µM

[ask] Proceed to "Cc1cc2c(c(O)c1-c1c(C)cc(O)c3c1C(=O)C=CC3=O)C(=O)C=CC2=O"
[reply] 100 µM
